FYI, the data here is from the supplement of paper PMC9170038.

# Test system: MS2 coat protein
# ASSAY OVERVIEW: apparent KD of MS2 coat protein; designed switch direction (-1 OFF switch, 1 ON switch): 1; higher = weaker reporter binding
# MEASUREMENT CONTEXT: Eterna round: R98; input ligand: none
Each entry below carries its reported apparent KD of MS2 coat protein.
Entry rule: numbers only, all in nM.

CCGUGACACGAAGGAUAUGUGGGUGGUAGUCUGUGCUCCGCCUACAUGAGGAUCACCCAUGUAUCACAGAAGGUCGGACGUCAA [Zaaerzaza] : 51.3
CAUAGGUGUACAUGAGGAUCACCCAUGUCCCUGGUCAUUGGACAGGAUAUAUGGGCGGUCGCUUCAUAGAAGGGUUAAAUGGGA [Orenatis] : 66.6
CCGGUGUAUGCAGGAUAUGAGAGGAGGUGACCAUCAGAAGGGCAAGCCCACAUGAGGAUCACCCAUGUACUAAGAGACAAGGCC [Tienlaonso] : 25.5
GGUCCAAUAUGAGGAUAUAGCACCUUAUUGGUGCUAGAAGGCGUGUCGGUAGACAUGAGGAUCACCCAUGUAUUACAAUGGACC [SameState #28 NG1] : 88.6
CACUCAAGGUGAGGAUAUGCACAGGAUCACCGUGUAGAAGGCAUCAGGUAGAAGGUGCAGAGGAUCACCCUGUAAGGAUAUAUC [pwkr2 ssNG1 DX.11] : 867

Fill in the blank: the reported apparent KD of MS2 coat protein of AUAGCAUACCGAGGAUAUUCAUAUAAUAAAUAAACAUGAGGAUCACCCAUGUGGCGAAAGCCUAGGGAGAAGGCGGAAUGCUAG [salish99_SSNG2_r2_101] is ____.
237

Fill in the blank: the reported apparent KD of MS2 coat protein of GUCGAAUUCUUAGGAUAUCGAGUGGAUAACACUCGAGAAGGAAGAUAUACCUGAGGAUCACCCAGGUUAAACUGAACGACAAUA [Same State NG1 - A3C, U17G Submission 7D] is ____.
18.5

Fill in the blank: the reported apparent KD of MS2 coat protein of GUAGCAUACCGAGGAUAUUCAGAGAAUAAAUAAACAUGAGGAUCACCCAUGUGGCGAAAGCCUAGGGAGAAGGCGGAAUGCUAC [salish99_SSNG2_r2_208] is ____.
81.9

Fill in the blank: the reported apparent KD of MS2 coat protein of CCCUUCAGAAGAGGGACAUGAGGAUCACCCAUGUAGGCUGCACAGGAUAUCGAUCGGAGGCGGUACGAGAAGGGUGACGUCAUU [Soedgege] is ____.
79.3
